measured-on: T1, Escherichia coli β-clamp (DnaN), recombinantly expressed and purified (Escherichia coli, UniProt P0A988 1-366)
T1 construct: β-clamp (dnaN), E. coli; homodimer; Unlabeled in STD-NMR and ITC; 2H,13C,15N-labeled in the TROSY-HSQC experiments; also called DNA sliding clamp; source: recombinantly expressed and purified as previously described [54]
experimental-details: ITC; 278-294 µM β-clamp in the syringe titrated into 70.6 µM peptide in the cell; 20 mM sodium phosphate, 100 mM NaCl, 1 mM TCEP, 0.02% DMSO, pH 7.4, 25°C; one-site model; three replicates
condition-info: both partners purified
pKd: −log10 of the molar value.
measure-name: pKd

1. Ac-KQVEMEFY-NH2 (also called QVEMEF peptide; RecB-derived QVEMEF peptide; source: synthetic peptide; bought: TAG Copenhagen) [RecB nuclease motif peptide (KQVEMEFY)]: 5.70

Data origin: paper PMC13254535
